# target-desc: Coagulation factor X (Homo sapiens)
# test-description: Binding ability to coagulation factor Xa, expressed as apparent association constant
experimental-endpoint: K ass

Some solved entries appear below for comparison.
compound	K ass
COc1ccc(C(=O)NC(C(=O)NCC2CCN(C(C)C)CC2)c2ccccc2C)cc1 (configuration not stated)	2.5e+06 l M-1
COc1ccc(C(=O)NC(C(=O)NCC2CCN(C(C)C)CC2)c2ccccc2[N+](=O)[O-])cc1 (configuration not stated)	4.2e+06 l M-1
O=C(NC(C(=O)NCC1CCN(C2CCCC2)CC1)c1nccs1)c1ccc2c(Cl)c[nH]c2c1 (configuration not stated)	3.8e+08 l M-1

Qu. Entry COc1ccc(C(=O)NC(C(=O)NCC2CCN(C(C)C)CC2)c2ccccc2N(C)C)cc1 (configuration not stated) has what K ass?
Ans. 1.1e+06 l M-1

Qu. Looking for the measured K ass of COc1ccc(C(=O)NC(C(=O)NCC2CCN(C(C)C)CC2)c2ccoc2)cc1 (configuration not stated) , can you help?
Ans. 200000 l M-1

Qu. Give its K ass value. Item: COc1ccc(C(=O)NC(C(=O)NCC2CCN(C(C)C)CC2)c2ccsc2)cc1 (configuration not stated)
Ans. 880000 l M-1

Qu. Given the entry O=C(NC(C(=O)NCC1CCN(C2CCCC2)CC1)c1cccc2ccccc12)c1ccc2c(Cl)c[nH]c2c1 (configuration not stated) , report its measured K ass.
Ans. 2.5e+08 l M-1

Qu. Value lookup for K ass; key = COc1ccc(C(=O)NC(C(=O)NCC2CCN(C(C)C)CC2)c2ccccc2OC)cc1 (configuration not stated)
Ans. 1.9e+06 l M-1

Qu. Please give the measured K ass for this compound: O=C(NC(C(=O)NCC1CCN(C2CCCC2)CC1)c1cnc2ccccc2c1)c1ccc2c(Cl)c[nH]c2c1 (configuration not stated)
Ans. 200000 l M-1

Qu. Please report the recorded K ass for CCOc1ccccc1C(NC(=O)c1ccc(OC)cc1)C(=O)NCC1CCN(C(C)C)CC1 (configuration not stated) .
Ans. 2.8e+06 l M-1

Qu. Which K ass is listed for COc1ccc(C(=O)NC(C(=O)NCC2CCN(C(C)C)CC2)c2ccccc2SC)cc1 (configuration not stated) ?
Ans. 2.9e+06 l M-1

Qu. Give its K ass value. Item: `O=C(N[C@@H](C(=O)NCC1CCN(C2CCCC2)CC1)c1ccccc1)c1ccc2c(Cl)c[nH]c2c1`
Ans. 8.2e+08 l M-1

* * *

# K ass annotations
# target-desc: Coagulation factor X (Homo sapiens)
# test-description: Binding ability to coagulation factor Xa, expressed as apparent association constant

Reference set, count: 5
compound	target-desc	K ass
COc1ccc(C(=O)NC(C(=O)NCC2CCN(C(C)C)CC2)c2ccccc2Oc2ccccc2)cc1 (centres undefined)	Coagulation factor X (Homo sapiens)	1.3e+06 l M-1
COc1ccc(C(=O)NC(C(=O)NCC2CCN(C(C)C)CC2)c2ccccc2Br)cc1 (centres undefined)	Coagulation factor X (Homo sapiens)	4.6e+06 l M-1
COc1ccc(C(=O)NC(C(=O)NCC2CCN(C(C)C)CC2)c2ccccc2C(F)(F)F)cc1 (centres undefined)	Coagulation factor X (Homo sapiens)	3.1e+06 l M-1
O=C(NC(C(=O)NCC1CCN(C2CCCC2)CC1)c1ccc2ccccc2c1)c1ccc2c(Cl)c[nH]c2c1 (centres undefined)	Coagulation factor X (Homo sapiens)	7.9e+07 l M-1
COc1ccc(C(=O)NC(C(=O)NCC2CCN(C(C)C)CC2)c2ccccc2SC(C)(C)C)cc1 (centres undefined)	Coagulation factor X (Homo sapiens)	1.7e+06 l M-1

Qu. What value of K ass has been reported for the following compound? COc1ccc(C(=O)NC(C(=O)NCC2CCN(C(C)C)CC2)c2ccnc3ccccc23)cc1 (centres undefined)
Ans. 1.3e+06 l M-1

* * *

K ass reference
# target-desc: Coagulation factor X (Homo sapiens)
# test-description: Binding ability to coagulation factor Xa, expressed as apparent association constant

compound	target-desc	K ass
COc1ccc(C(=O)NC(C(=O)NCC2CCN(C(C)C)CC2)c2ccccc2OCc2ccccc2)cc1 (centres undefined)	Coagulation factor X (Homo sapiens)	2.6e+06 l M-1
COc1ccc(C(=O)NC(C(=O)NCC2CCN(C(C)C)CC2)c2ccccc2O)cc1 (centres undefined)	Coagulation factor X (Homo sapiens)	1.3e+06 l M-1
COc1ccc(C(=O)NC(C(=O)NCC2CCN(C(C)C)CC2)c2cccs2)cc1 (centres undefined)	Coagulation factor X (Homo sapiens)	1.1e+06 l M-1
COc1ccc(C(=O)NC(C(=O)NCC2CCN(C(C)C)CC2)c2ccccc2OC(F)(F)F)cc1 (centres undefined)	Coagulation factor X (Homo sapiens)	4.1e+06 l M-1
COc1ccc(C(=O)NC(C(=O)NCC2CCN(C(C)C)CC2)c2ccccc2)cc1 (centres undefined)	Coagulation factor X (Homo sapiens)	710000 l M-1

Qu. Form field: reported K ass of COc1ccc(C(=O)NC(C(=O)NCC2CCN(C(C)C)CC2)c2ccccc2N)cc1 (centres undefined)
Ans. 750000 l M-1

Qu. Which K ass reading was recorded for the compound COc1ccc(C(=O)NC(C(=O)NCC2CCN(C(C)C)CC2)c2cnc3ccccc3c2)cc1 (centres undefined) ?
Ans. 50000 l M-1

Qu. Consider the compound COc1ccc(C(=O)NC(C(=O)NCC2CCN(C(C)C)CC2)c2ccccc2Cl)cc1 (centres undefined) and give its measured K ass.
Ans. 5.1e+06 l M-1

Qu. Name the recorded K ass for COc1ccc(C(=O)NC(C(=O)NCC2CCN(C(C)C)CC2)c2ccccc2I)cc1 (centres undefined) .
Ans. 4.1e+06 l M-1

* * *

# target-desc: Coagulation factor X (Homo sapiens) (UniProt P00742)
# Sequence (P00742 41-179 limits assumed): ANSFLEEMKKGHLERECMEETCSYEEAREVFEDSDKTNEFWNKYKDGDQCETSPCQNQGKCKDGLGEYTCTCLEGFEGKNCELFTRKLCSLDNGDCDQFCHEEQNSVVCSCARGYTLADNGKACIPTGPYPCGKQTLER
# Sequence (P00742 235-488 limits assumed): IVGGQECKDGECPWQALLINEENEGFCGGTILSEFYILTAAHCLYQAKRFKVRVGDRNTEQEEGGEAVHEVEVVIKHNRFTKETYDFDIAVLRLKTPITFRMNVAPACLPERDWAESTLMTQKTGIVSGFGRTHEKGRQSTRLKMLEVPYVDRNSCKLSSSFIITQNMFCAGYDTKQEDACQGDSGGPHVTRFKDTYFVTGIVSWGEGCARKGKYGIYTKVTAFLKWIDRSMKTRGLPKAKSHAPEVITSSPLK
# test-description: Binding ability to coagulation factor Xa, expressed as apparent association constant
The molecules listed here are annotated with their K ass.

Qu. Tell me the measured K ass of COc1ccc(C(=O)NC(C(=O)NCC2CCN(C(C)C)CC2)c2ncc[nH]2)cc1 (stereo not drawn) , please.
Ans. 210000 l M-1

Qu. Which K ass value is on record for COc1ccc(C(=O)NC(C(=O)NCC2CCN(C(C)C)CC2)c2ccccc2F)cc1 (stereo not drawn) ?
Ans. 2e+06 l M-1

Qu. Please look up its K ass: COc1ccc(C(=O)NC(C(=O)NCC2CCN(C(C)C)CC2)c2ccco2)cc1 (stereo not drawn)
Ans. 360000 l M-1
